Test: Pharmacokinetic study in rats after single i.v. or i.p. tianeptine, non-compartmental analysis
Conditions: male, Wistar, rat, in vivo, iv, 1 mg/kg
Structures can show the parent of a compound that is named as a salt.
endpoint: k el

> print(dat)
                                   compound     obsvalue
1  CN1c2ccccc2C(NCCCCC(=O)O)c2ccc(Cl)cc2S1(=O)=O (stereo not shown) [MC5, tianeptine metabolite MC5 sodium salt]  2.5e-05 s⁻¹

* * *

Experiment: Pharmacokinetic study in rats after single i.v. or i.p. tianeptine, non-compartmental analysis
Details: male, Wistar, rat, in vivo, iv, 1 mg/kg
Structures can show the parent of a compound that is named as a salt.
endpoint: Tmax (min)

> print(dat)
                                   compound  obsvalue
1  CN1c2ccccc2C(NCCCCC(=O)O)c2ccc(Cl)cc2S1(=O)=O (stereo not shown) [MC5, tianeptine metabolite MC5 sodium salt]        24
